# TEST PROTOCOL: yeast display, Sf9 membrane polyspecificity reagent, FACS + sequencing; frameworks hold sequencing errors
REPORTED ENDPOINT: polyreactivity (PSR sort gate)

Field: example entries. Status: answers known.
QVQLVESGGGLVQAGGSLRLSCADSGRIFRDYAMGWYRQAPGKERELVAAISRSGGSTYYADSVKGRFTISRDNAKNTVYLQVNSLKPEDTAVFYCAAKYYYGGNGYWGQGTQVTVSS; low polyreactivity
QVQLVESGGGLVQAGGSLRLSCAASGSTFSRNAKGWYRQAPGKERELVAAITRSGGSTYYADSVKGRFTISRDNAKNTVYLQMNSLKPEDTAVYYCAVAVPRGVYLYDYWGQGTQVTVSS; low polyreactivity
QVQLVESGGGLVQAGGSLRLSCAASGRTFYGNAMGWYRQAPGKERELVAAISYRTGRTYYADSVKGRFTISRDNAKNTVYLQMNSLKPEDTAVYYCAADLHSRDDYWGQGTKVTVSS; high polyreactivity
QVQLVESGGGLVQAGGSLRLSCAASGRISSAYAMGWYRQAPGKERELVAAISSGTRTNYADSVKGRFTMSRDNAKNTVYLQMNSLKPEDTAVYYCNAVPGYVYYYQYWGQGTQVTVSS; high polyreactivity

Now take the following sequence into account.
In: Supply measured polyreactivity (PSR sort gate) of QVQLVESGGGLVQAGGSLRLSCAASGSIFPGYAMGWSRQAPEKERELVAAISRRGGSTYYADSVKGRFTISRDNAKNTVYLQMNSLKPEDNAVYYCAKDGTGAGTYDYWGQGTKVTVSS in your reply.
Out: low polyreactivity

###

# TEST PROTOCOL: yeast display, Sf9 membrane polyspecificity reagent, FACS + sequencing; frameworks hold sequencing errors
REPORTED ENDPOINT: polyreactivity (PSR sort gate)

Below are worked cases with known answers.
QDQLVESGGGLVQAGGSLRLSCAASGSIFDIYAMGWYRQAPGKEREMVASIRRRGGSTYYADSVKGRFTISRDNAKNTVYLQMNSLKPEDTAVYDCNARRVWLRTTWTNWPERGYWGQGTQVTVSS; high polyreactivity
QVQLVESGAGLFQAGGSLRLTCAPSGSIFAFNTMGLYRQAPGKERHLVAAITWGGGSTYYADSVKGRFTISRDNAKNTVYLQMYSLKPEDTAVYYCATKAKYGRQFLMEYWGQGTQVTVSS; high polyreactivity
QVQRVESGGCLVQAGGSLRLSCAASGRTFSYYTMGWYRQAPGKEREFVATINTSGGSTYYADSVKGRFTISRDNAKNTVYLQMNSLKPEDTAVYYCAADVYSFLSISYQWYRMDYWGQGTQVTVSS; low polyreactivity
QVQLVESGGGLFQAGGSLRLSCAASGIIFYDYAMGRYRQPPAKERELVAAITSNGDNTYYADSVKWRFTISRDNAKNTVYLQMNILKPEDTAVYYCAVDGSFAADFDNYLEEYGYWGQGTQVTVSS; low polyreactivity
QVQLVESGGGLVQAGGSLRLSCAASGSTFVTNGMGWYRQAPGKERELVAAISGNVGSTYYADSVKGRFTISRDNAKNTVYLQMNSLKPEDTAVYYCAARQYRPSDYDYWGQGTQVTVSS; low polyreactivity

In: Consider the sequence QVQLVESGGGLVQAGGSLRLSCSASGRIFRFYGMGWYRQAPGKDRELVAAISSRGGSTYYADSVKGRFTISRDNAKNTVYLQMNSLKPEDSGVYYCAASGAFWYPYDYWGQGTQVTVSS and give its recorded polyreactivity (PSR sort gate).
Out: high polyreactivity

In: Give the measured polyreactivity (PSR sort gate) for QVQLVESGGGLVQAGGSLRLSCAASGSILGHYAMGWYRQAPGKERELVAAISWSGGSTYYADSVKGRFTISRDNAKNTVYLQMNSLKPEDTAVYYCNAYLSPKQPLSPPDPTFEGGYWGQGTQVTVSS
Out: low polyreactivity

In: State its polyreactivity (PSR sort gate): QVQLVESGGGLVQAGGSLRLSCAASGSTFARYAMGWYRQAPGKERELVAAISRRGGSTYYADSVKGRFTISRDNAKNTVYLQMNSLKPEDTAVYYCAARYGIISSFEYDYWGQGTQVTVSS
Out: high polyreactivity

In: Fill in reported polyreactivity (PSR sort gate) for this entry: QVQLVESGGGLVQAGGSLRLSCAASGSIFYYYDMGWYRQAPGKERELVAAIRGSGGSTYYADSVKGRFTISRDNAKNTVYLQMNSLKPEDTAVYYCAAEFGDQRFYRQYVRRDHWGQGTQVTVSS
Out: low polyreactivity

In: For the sequence QVQRVESGGGLVQAGGSLRLSCAASGSTFKKYVMGWYRPAPGKERELVAAISGRGGSTYYADSVKGRFTISRDNAKNTVYLQMNSLKPEDTAVYYCNARKQTARFDSWGQGTQVTVSS , give its reported polyreactivity (PSR sort gate).
Out: high polyreactivity

In: Fill in polyreactivity (PSR sort gate) for record QVQLVESGGGLVQAGGSLRLSCAASGITFYGYAMGWYRQAPGKERELVAAISSRGGSTYYADSVKGRFTISRDNAKNTVYLQMNRLKPEDTAVYYCAAVYYTGEYYYWGQGTQVTVSS
Out: high polyreactivity

In: Give the reported value of polyreactivity (PSR sort gate) for this record: QVQLVESGGGLVQAGGSLRLSCAASGFILYGNTMGWYRHAPGKDRELVAAISWSGGNTRYADSVKGRFTISRDNAKNTVYLQMNSLKQDDTAVYYCAAYSKYVLSIRRDYWGQGTQVTVSS
Out: low polyreactivity

In: Answer with the recorded polyreactivity (PSR sort gate) of QLHLVESGGGLVQAGGSLRLSCAASGYIFNYNAMGWSRQAPGTQREFVAAISQGGGSTYYADSVKGRFTISRDNSKYTVYLQMNRLKPEDTAVYYCAADYRSGYREMDYWGQGTQVTVSS only.
Out: low polyreactivity

In: Give the reported value of polyreactivity (PSR sort gate) for this record: QVQLVESGGGLVQAGGSLRLSCAASGNTFGNYGMGWYRQAPGKEREFVAAITSRGTSSYYADSVKGRFTISRDNAKNTVYLQMNSLKPEDTAVYYCNARPRYKYPRYDYWGQGTQVTVSS
Out: high polyreactivity

In: Quick one: give measured polyreactivity (PSR sort gate) for QVQLVESGGGLVQAGGRLRLSCAASGRILYVYLMGWYRQAPGKERELGAAISRRGGGTYYADSVKGRFTISRDNAKNTVYLQMNSLKPEDTAVYYCATDQYYEYDYWGQGTQVTVSS
Out: low polyreactivity

In: Please look at this sequence and report its polyreactivity (PSR sort gate): QVQLVESGGGLVQAGGSLRLSFAASGRTFVINAMGWYRQAPGKERELVAAITWRGGSTYYADSVKGRFTISRDNAKNTVYLQMNSLKPEDTAVYYCAARWFPWLQLKRYDYWGQGTQVTVSS
Out: low polyreactivity
